Reference source: patent US6413517B1

- target or test system: DRB1*0802 (DR8w2) (Homo sapiens, UniProt P01903+P01911, A100R/A103L/A169T/F76Y/H45Y/I96F/K41T/L162R/M171V/P40S/Q125H/Q178H/Q39Y/Q99D/R218S/R42G/S66Y/V115G/W38E)
- Construct: Epstein-Barr virus (EBV) transformed homozygous cell lines were used as sources; endogenous in cells; host or cells: OLL (EBV-transformed homozygous B cell line)
- protocol notes: biochemical
- Assay type: binding
- measurement context: read-out: Binding Capacity (IC 50% nM) Other Alleles DR8w2
Record form. Attribute: IC50. Fill in for each entry.

• CC[C@H](C)[C@H](N)C(=O)N[C@@H](CCCCN)C(=O)N[C@@H](CC(C)C)C(=O)N1CCC[C@H]1C(=O)N[C@H](C(=O)N[C@H](C(=O)N[C@@H](CC(C)C)C(=O)N[C@@H](C)C(=O)N[C@@H](Cc1ccccc1)C(=O)N[C@@H](C)C(=O)N[C@H](C(=O)N[C@@H](CS)C(=O)N[C@@H](Cc1ccccc1)C(=O)N[C@@H](CC(C)C)C(=O)N[C@H](C(=O)N1CCC[C@H]1C(=O)O)[C@@H](C)CC)[C@@H](C)O)[C@@H](C)CC)[C@@H](C)CC [Peptide 1136.12] = > 1000 nM

[ask] Which measured IC50 value corresponds to CC[C@H](C)[C@H](NC(=O)[C@H](CC(C)C)NC(=O)[C@H](CC(=O)O)NC(=O)[C@@H](NC(=O)[C@H](Cc1ccccc1)NC(=O)[C@H](Cc1ccc(O)cc1)NC(=O)[C@H](Cc1c[nH]cn1)NC(=O)[C@H](Cc1c[nH]cn1)NC(=O)[C@@H](N)[C@@H](C)O)C(C)C)C(=O)NCC(=O)NCC(=O)N[C@@H](C)C(=O)N[C@@H](CCSC)C(=O)N[C@@H](CC(C)C)C(=O)N[C@@H](CO)C(=O)N[C@@H](CC(C)C)C(=O)O [Peptide 1136.47] ?
[reply] > 1000 nM

====

- target or test system: DRB1*0802 (DR8w2) (Homo sapiens, UniProt P01903+P01911, A100R/A103L/A169T/F76Y/H45Y/I96F/K41T/L162R/M171V/P40S/Q125H/Q178H/Q39Y/Q99D/R218S/R42G/S66Y/V115G/W38E)
- Construct: Epstein-Barr virus (EBV) transformed homozygous cell lines were used as sources; endogenous in cells; host or cells: OLL (EBV-transformed homozygous B cell line)
- protocol notes: biochemical
- Type: binding
- measurement context: Binding Capacity (IC50% nM) DR8w2
readout kind: IC50

Consider the reported IC50 for these compounds:
• CC[C@H](C)[C@H](NC(=O)[C@H](CC(C)C)NC(=O)[C@H](Cc1ccccc1)NC(=O)[C@H](CS)NC(=O)[C@@H](NC(=O)[C@H](C)NC(=O)[C@@H](N)Cc1ccccc1)[C@@H](C)O)C(=O)N1CCC[C@H]1C(=O)N[C@@H](CC(C)C)C(=O)N[C@H](C(=O)N[C@@H](CO)C(=O)N[C@@H](CCC(N)=O)C(=O)N[C@@H](Cc1ccccc1)C(=O)N[C@@H](Cc1ccccc1)C(=O)N[C@@H](CC(C)C)C(=O)N1CCC[C@H]1C(=O)O)[C@@H](C)O [Peptide 1136.14] = > 10000 nM
• CC(C)[C@H](NC(=O)[C@H](CO)NC(=O)[C@@H](NC(=O)[C@H](C)NC(=O)[C@H](CO)NC(=O)[C@H](CO)NC(=O)[C@H](C)NC(=O)[C@H](C)NC(=O)[C@H](Cc1ccc(O)cc1)NC(=O)[C@@H](NC(=O)[C@H](CO)NC(=O)CNC(=O)[C@H](CCC(N)=O)NC(=O)[C@@H]1CCCN1C(=O)[C@@H](N)CCC(=O)O)[C@@H](C)O)[C@@H](C)O)C(=O)N[C@@H](CC(=O)O)C(=O)O [Peptide 1136.71] = > 10000 nM
• CC[C@H](C)[C@H](NC(=O)[C@H](CC(C)C)NC(=O)[C@H](CC(=O)O)NC(=O)[C@@H](NC(=O)[C@H](Cc1ccccc1)NC(=O)[C@H](Cc1ccc(O)cc1)NC(=O)[C@H](Cc1c[nH]cn1)NC(=O)[C@H](Cc1c[nH]cn1)NC(=O)[C@@H](N)[C@@H](C)O)C(C)C)C(=O)NCC(=O)NCC(=O)N[C@@H](C)C(=O)N[C@@H](CCSC)C(=O)N[C@@H](CC(C)C)C(=O)N[C@@H](CO)C(=O)N[C@@H](CC(C)C)C(=O)O [Peptide 1136.47] = > 10000 nM
• CC[C@H](C)[C@H](NC(=O)[C@H](CO)NC(=O)[C@H](CO)NC(=O)[C@H](CC(N)=O)NC(=O)[C@@H](NC(=O)[C@@H](NC(=O)[C@H](CC(N)=O)NC(=O)[C@H](Cc1ccccc1)NC(=O)[C@@H](N)C(C)C)C(C)C)C(C)C)C(=O)NCC(=O)N[C@@H](CC(C)C)C(=O)N[C@H](C(=O)N[C@@H](CCSC)C(=O)N[C@H](C(=O)N[C@@H](CC(C)C)C(=O)O)C(C)C)[C@@H](C)CC [Peptide F107.23] = > 10000 nM
• CC(C)C[C@H](NC(=O)CNC(=O)[C@H](C)NC(=O)[C@@H](N)CC(C)C)C(=O)N[C@@H](CC(C)C)C(=O)NCC(=O)N[C@@H](CC(N)=O)C(=O)N[C@H](C(=O)N[C@@H](CO)C(=O)N[C@H](C(=O)N[C@H](C(=O)N[C@@H](CC(C)C)C(=O)N[C@@H](CC(C)C)C(=O)NCC(=O)NCC(=O)O)C(C)C)[C@@H](C)O)C(C)C [Peptide F107.10] = > 10000 nM

Would you kindly look at the next entry?
[ask] # get_value(readout='IC50', item= CC[C@H](C)[C@H](NC(=O)[C@H](CC(=O)O)NC(=O)[C@H](CC(C)C)NC(=O)[C@@H](NC(=O)CNC(=O)[C@@H](NC(=O)[C@@H](NC(=O)[C@@H](NC(=O)[C@@H](NC(=O)[C@H](C)NC(=O)[C@H](CC(C)C)NC(=O)[C@@H](NC(=O)[C@H](CC(N)=O)NC(=O)[C@H](CO)NC(=O)[C@H](CC(C)C)NC(=O)[C@@H](N)CC(N)=O)C(C)C)[C@@H](C)O)[C@@H](C)CC)[C@@H](C)O)[C@@H](C)O)C(C)C)C(=O)O [Peptide 1136.24] )
[reply] > 10000 nM
